Biological target: purified E. coli cyt bd-I oxidase (Escherichia coli)
Construct: made in house; host or cells: E. coli C43(DE3) Δbo3 with plasmid pet17b-cydABX-StrepII
Sequence (P56100 whole entry): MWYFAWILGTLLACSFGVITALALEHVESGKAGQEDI
Sequence (P0ABJ9 whole entry): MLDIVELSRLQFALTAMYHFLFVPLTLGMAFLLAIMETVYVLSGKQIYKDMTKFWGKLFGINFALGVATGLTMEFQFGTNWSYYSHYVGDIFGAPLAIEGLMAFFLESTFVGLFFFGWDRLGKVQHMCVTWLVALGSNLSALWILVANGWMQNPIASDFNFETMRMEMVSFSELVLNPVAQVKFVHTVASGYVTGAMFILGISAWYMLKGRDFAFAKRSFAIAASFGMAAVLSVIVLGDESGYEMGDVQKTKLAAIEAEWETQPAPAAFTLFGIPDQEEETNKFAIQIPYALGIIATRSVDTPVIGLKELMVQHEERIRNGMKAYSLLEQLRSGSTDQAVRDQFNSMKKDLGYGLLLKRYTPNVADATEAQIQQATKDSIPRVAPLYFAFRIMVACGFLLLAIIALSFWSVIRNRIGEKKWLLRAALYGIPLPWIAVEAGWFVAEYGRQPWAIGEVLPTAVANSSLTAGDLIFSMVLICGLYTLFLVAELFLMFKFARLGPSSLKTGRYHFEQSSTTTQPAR
Sequence (P0ABK2 whole entry, further chain): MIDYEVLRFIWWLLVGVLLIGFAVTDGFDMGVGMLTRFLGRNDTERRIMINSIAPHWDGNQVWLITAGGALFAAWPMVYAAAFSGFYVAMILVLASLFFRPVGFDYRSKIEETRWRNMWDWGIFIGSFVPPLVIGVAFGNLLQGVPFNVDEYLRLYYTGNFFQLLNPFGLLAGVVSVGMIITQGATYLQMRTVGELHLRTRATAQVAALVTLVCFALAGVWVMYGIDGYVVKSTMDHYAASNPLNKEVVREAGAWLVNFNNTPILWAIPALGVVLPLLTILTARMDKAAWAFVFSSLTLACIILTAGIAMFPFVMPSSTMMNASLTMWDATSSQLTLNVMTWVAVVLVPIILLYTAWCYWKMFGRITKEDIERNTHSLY
Experiment: biochemical
Settings: inhibitor 250 µM, 200 μM ubiquinone-1, 5 mM DTT, 30 nM enzyme, RT; mean of three ± SD; 100 % = EtOH; read-out: Residual activity for oxygen reduction, Cytochrome bd-I
Below: a set of entries, each annotated with reported remaining activity at 250 µM.
QUANTITY: remaining activity at 250 µM

COc1cc(CC2=C(O)C(=O)c3ccccc3C2=O)ccc1O ... 106%
O=C1C(O)=C(Cc2ccc3c(c2)OCO3)C(=O)c2ccccc21 ... 109%
O=C1C(O)=C(Cc2ccccc2)C(=O)c2ccccc21 ... 107%
